- ASSAY TEXT: Drug metabolism assessed as […] incubated for 1 min in presence of human recombinant N-terminal His-tagged DCK Ala119Gly mutant expressed in Escherichia coli BL21(DE3) cells by liquid chromatography-tandem mass spectrometry
- Format: ADME
READOUT LABEL: Km (µM)

molecule="Nc1ccn([C@@H]2O[C@H](CO)[C@@H](O)C2(F)F)c(=O)n1 [GEMCITABINE]" readout_label=Km measured=1.75

* * *

- ASSAY TEXT: Activity of human recombinant N-terminal His-tagged DCK Ala119Gly mutant expressed in Escherichia coli BL21(DE3) cells assessed as cytosine-beta-D-arabinofuranoside-5'-MP formation incubated for 3 mins by liquid chromatography-tandem mass spectrometry
- Type: ADME
- EXPERIMENTAL PARAMETERS: 0.05 h
READOUT LABEL: Km (µM)

structure=Nc1ccn([C@@H]2O[C@H](CO)[C@@H](O)[C@@H]2O)c(=O)n1 readout_label=Km measured=2.54

Cited source for all entries: ChEMBL document CHEMBL3525898
